# SUBJECT OF TEST: Neuronal acetylcholine receptor; alpha4/beta2 (Homo sapiens, UniProt P17787+P43681)
# Sequence (P17787 whole entry): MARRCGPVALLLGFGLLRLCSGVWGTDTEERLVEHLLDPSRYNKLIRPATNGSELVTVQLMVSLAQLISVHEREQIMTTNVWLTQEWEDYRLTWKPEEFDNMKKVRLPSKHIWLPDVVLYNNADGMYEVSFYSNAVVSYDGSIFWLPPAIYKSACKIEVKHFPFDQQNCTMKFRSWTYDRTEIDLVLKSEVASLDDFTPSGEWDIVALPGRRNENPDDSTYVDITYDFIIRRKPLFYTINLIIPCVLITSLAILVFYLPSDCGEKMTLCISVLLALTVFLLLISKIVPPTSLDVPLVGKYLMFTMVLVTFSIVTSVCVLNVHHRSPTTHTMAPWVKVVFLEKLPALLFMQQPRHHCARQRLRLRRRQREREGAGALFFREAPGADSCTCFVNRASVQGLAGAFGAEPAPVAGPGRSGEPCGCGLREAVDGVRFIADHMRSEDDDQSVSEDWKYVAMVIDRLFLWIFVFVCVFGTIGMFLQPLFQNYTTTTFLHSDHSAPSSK
# Sequence (P43681 whole entry): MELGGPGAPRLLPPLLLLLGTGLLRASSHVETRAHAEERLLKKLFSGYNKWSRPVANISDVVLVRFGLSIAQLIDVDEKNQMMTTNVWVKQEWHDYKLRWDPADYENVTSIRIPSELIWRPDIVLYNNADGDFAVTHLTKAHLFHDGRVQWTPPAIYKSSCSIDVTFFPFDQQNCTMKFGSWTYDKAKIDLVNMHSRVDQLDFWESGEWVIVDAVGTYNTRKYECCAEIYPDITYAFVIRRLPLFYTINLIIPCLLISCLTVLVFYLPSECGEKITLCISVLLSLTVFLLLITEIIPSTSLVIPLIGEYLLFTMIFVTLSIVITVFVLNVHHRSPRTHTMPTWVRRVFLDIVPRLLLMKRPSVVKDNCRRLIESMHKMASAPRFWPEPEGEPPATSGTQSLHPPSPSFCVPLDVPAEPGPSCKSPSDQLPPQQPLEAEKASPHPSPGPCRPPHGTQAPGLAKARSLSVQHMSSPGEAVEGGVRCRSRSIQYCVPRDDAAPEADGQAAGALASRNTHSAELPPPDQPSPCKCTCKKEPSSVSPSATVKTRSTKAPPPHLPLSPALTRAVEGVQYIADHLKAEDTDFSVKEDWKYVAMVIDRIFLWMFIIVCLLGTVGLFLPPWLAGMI
# MEASUREMENT PROTOCOL: Agonist activity at human alpha4beta2 nAChR expressed in HEK293 cells assessed as intracellular calcium level by FLIPR assay
ASSAY READOUT: EC50 (µM)
# output: bare number, implied unit µM

Which EC50 is listed for "Cc1ncc(N2CCNCC2)cc1Cl" ?
26.9

Then what about the molecule "C=COc1cncc(N2CCNCC2)c1" ?
7.59

Then what about the molecule c1cncc(OC2CCCNC2)c1 (stereo not drawn) ?
32.4

Then what about the molecule "Clc1ncc(N2CCNCC2)cc1Br" ?
7.94

Then what about the molecule "COc1cncc(N2CCCNCC2)c1" ?
1.41

Then what about the molecule "CCOc1cc(N2CCCNCC2)cnc1Br" ?
0.257

Then what about the molecule COc1cncc(C2=CC3CCCC(C2)N3)c1 (stereo not drawn) ?
4.37

Then what about the molecule C1=C(c2cccnc2)CC2CCCC1N2 (stereo not drawn) ?
1.2
